Data origin, for the record: the supplement of paper PMC9170038

Entries and their apparent KD of MS2 coat protein values follow.
- Test system: MS2 coat protein
- assay-notes: apparent KD of MS2 coat protein; higher = weaker reporter binding
- condition-description: Eterna round: R107; input ligand: theophylline 20 uM
Response body: numeric value in nM, unit text excluded.

Please review the following examples before continuing.
AAACUGGGUGUAAAAUAAAUAAUCACUGAUACCAGACUAUUUUAUGUCCCUUGGCAGCAGAAACAUGAGGAUCACCCAUGUAAUA [JR_Nu_ExcTheophyA_Sub025] | 25.3
ACAUGAGGAUCACCCAUGUGAAGCAGGGUACGAGGACCGGUACGGCCGCCACUCGAGGAUUAUGCCGAGUGAAUGGCAACGAUGU [whbob_Ex_trypto A_2s19] | 22.7
AAACAUGAGGAUCACCCAUGUUCUCCUGUCCGAGGACCGGUACGGCCGCCACUCGGUUCUCGGGAGGAUGGUCAAAGACUAUCCA [Omei Trp A SS B v8] | 16.9
AAUAAUCUAGGUGAUACCAGCUCAACAUGAGGAUCACCCAUGUGCUCAUGAAGAGCUGAGAGCCCUUGGCAGCACCUAGAUAAUA [(Theo1)-(Ms2)-(M)'-(T)'-(Theo2)_Design2] | 676
GAAACGUAGGUGGAGCGGUGAAAUGGCGAUACCAGCGUGGAAACACGCCCUUGGCAGCGUUAGAACAUGAGGAUCACCCAUGUUU [#21 Exclusion-TheophyllineA] | 62.4

Exam item: Notebook entry, MS2 coat protein assay: apparent KD of MS2 coat protein of AAGGGUGAGUCUCUAAUCCGUUUGACGGAUACCAGCGAGAGAUAUCGCCCUUGGCAGCCGACGACAUGAGGAUCACCCAUGUAAA [Exclusion - Theophylline A] = ?
Marked response: 22

Exam item: Same lookup for CAUACUUUAGUAUGUUAUGUGGACAGUGAUACCAGAUACGAAAGUAUCCCUUGGCAGCACAACAUGAGGAUCACCCAUGUAUUUU [Theophylline A 4] , please.
Marked response: 22.2

Exam item: Further, for CAGGUGGACUGAAGGAGCGAGUCAGGGACUUACAUGAGGAUCACCCAUGUCACGGUCGUCACUCAGGUAGGUCGCAGUUCGCCUC [Diinan] ?
Marked response: 279

Exam item: Let us now turn to CUAAGAGUAGGAAGGAGCGACAUGAGGAUCACCCAUGUGGCUCUCAUGGCCCGGGUCUUAUGUCAGGUAGGUCGCCUACUGUUUA [Solave]
Marked response: 21.9

Exam item: Note, next up: AACAUGAGGAUCACCCAUGUGUCCUCGAAACGAGGACCGGUACGGCCGCCACUCGAAGCAUGUUGACGAAAAGUCAGCAUGCAAA [Mat - Exclusion - Trytophan A - D14]
Marked response: 292
